Biological target: NADPH oxidase 5 (Homo sapiens) (UniProt Q96PH1)
Sequence (Q96PH1 whole entry, looked up): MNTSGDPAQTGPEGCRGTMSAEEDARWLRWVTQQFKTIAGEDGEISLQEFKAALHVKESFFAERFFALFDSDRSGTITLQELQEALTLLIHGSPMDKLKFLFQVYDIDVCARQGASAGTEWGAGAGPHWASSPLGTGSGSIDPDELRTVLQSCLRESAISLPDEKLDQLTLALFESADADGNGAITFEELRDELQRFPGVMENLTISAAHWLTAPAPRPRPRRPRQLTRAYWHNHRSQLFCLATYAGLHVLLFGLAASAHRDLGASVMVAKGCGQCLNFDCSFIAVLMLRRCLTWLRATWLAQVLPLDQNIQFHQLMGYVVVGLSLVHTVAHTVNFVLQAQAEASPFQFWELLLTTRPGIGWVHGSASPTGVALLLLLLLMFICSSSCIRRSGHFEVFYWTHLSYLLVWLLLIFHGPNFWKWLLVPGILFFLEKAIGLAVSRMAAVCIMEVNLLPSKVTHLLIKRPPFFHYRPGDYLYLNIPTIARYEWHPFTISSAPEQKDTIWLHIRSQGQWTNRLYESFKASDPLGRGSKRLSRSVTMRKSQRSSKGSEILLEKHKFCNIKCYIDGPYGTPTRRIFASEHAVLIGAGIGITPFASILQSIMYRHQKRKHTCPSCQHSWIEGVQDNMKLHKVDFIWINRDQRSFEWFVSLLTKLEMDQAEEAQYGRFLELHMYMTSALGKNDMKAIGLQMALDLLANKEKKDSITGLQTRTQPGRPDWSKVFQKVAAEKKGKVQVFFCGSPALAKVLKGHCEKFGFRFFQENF
Experiment: NOX5-dependent H2O2 signal modulators, primary screen, NOX inhibitor project, cell-based, HEK293-NOX5, Amplex Red fluorescence (AID 1161)
Conditions: HEK293-NOX5, ionomycin, 45 min, higher = more signal
parameter-measured: z-score

molecule: [N-]=[N+]=Nc1ccccc1C[C@@]1(C(=O)NCCN2CCOCC2)N=C(c2ccc(OCCCO)cc2)O[C@@H]1c1ccccc1
parameter-measured: z-score
value-reported: 0.589
--
molecule: COCCOC(=O)N1C(=O)[C@@]2(c3ccccc31)[C@H](c1ccccc1OCCO)N1[C@H](c3ccccc3)[C@H](c3ccccc3)OC(=O)[C@H]1[C@@H]2C(=O)Nc1nc2ccccc2s1
parameter-measured: z-score
value-reported: 0.676
--
molecule: CC(C)C[C@H]1NC(=O)[C@@]23C(=O)N[C@@H](Cc4ccccc4)C2[C@H](C)[C@@]2(C)O[C@H]2C3/C=C/C/C=C\CNC(=O)[C@H](Cc2ccccc2)NC1=O (stereo partly drawn)
parameter-measured: z-score
value-reported: 0.971

----------
Experiment: binders from COS7 lysate, DM2A8 probe, primary screen, torsin A project, cell lysate, small-molecule microarray, fluorescence 635/667 (AID 1065)
Conditions: higher = more signal, COS7 lysate expressing mutant human TOR1A

compound: COc1ccc(CCNC(=O)[C@@]2(C)c3ccccc3C(=O)N(Cc3cc(F)cc(C(F)(F)F)c3)[C@H]2c2ccc(CO)cc2)cc1
composite z-score: -0.518
//
compound: COc1ccc(CCN2C(=O)[C@@]3(Cc4ccccc42)c2ccccc2C(=O)N(Cc2ccccc2C(F)(F)F)[C@H]3c2ccc(CO)cc2)cc1
composite z-score: -0.0678
//
compound: O=C1O[C@@H](c2ccccc2)[C@@H](c2ccccc2)N2[C@@H](c3ccc(OCCO)cc3)[C@]3(C(=O)Nc4ccccc43)[C@@H](C(=O)NC[C@H](O)c3ccccc3)[C@H]12
composite z-score: 0.0007
//
compound: [N-]=[N+]=NCc1ccccc1C[C@@]1(C(=O)NCC(O)CO)N=C(c2ccc(OCCCO)cc2)O[C@@H]1c1ccccc1N=[N+]=[N-] (some centres undefined)
composite z-score: -0.133
//
compound: C=CCN1C(=O)[C@]2(O[C@H](CCO)[C@@H]([Si](C)(C)c3ccc(OC)cc3)[C@@H]2C)c2cc(N3CCCCC3=O)ccc21
composite z-score: 0.897
//
compound: CN(C)CCCCCCNC(=O)[C@@H]1C[C@@H]2C(=O)N[C@@H](CCCCN)C(=O)N2[C@@H]1c1cccc(OCCO)c1
composite z-score: 2.4
//
compound: CCOc1cc(C(O)C2C=CC3C(=O)N(c4ccccc4)C(=O)C3N2Nc2ccccc2)ccc1O (centres undefined)
composite z-score: 0.107
//
compound: C=CCNC(=O)[C@H]1[C@@H]2C(=O)O[C@@H](c3ccccc3)[C@@H](c3ccccc3)N2[C@@H](c2ccc(OCCO)cc2)[C@]12C(=O)N(C(=O)OCCOC)c1ccccc12
composite z-score: 0.847
//
compound: COC(=O)[C@@]1(Cc2ccc(F)cc2)[C@H]2c3cc(C(=O)N4CCCC4)n(Cc4cc(C)n(C)n4)c3C[C@H]2CN1C(=O)c1ccccc1
composite z-score: 0.276
//
compound: COCCCNC(=O)[C@@]1(Cc2ccccc2)N=C(c2ccc(OCCCO)cc2)O[C@H]1c1ccccc1
composite z-score: 1.2
//
compound: COc1ccc(C#Cc2ccc3c(c2)[C@]2(C(=O)N3)[C@H](c3ccccc3OCCO)N3[C@H](c4ccccc4)[C@H](c4ccccc4)OC(=O)[C@H]3[C@@H]2C(=O)O)cc1
composite z-score: 0.424
//
compound: CCOC(=O)C1=CCC(c2ccccc2)N(S(=O)(=O)CC[Si](C)(C)C)C1 (centres undefined)
composite z-score: 0.701
//
compound: C=C(/C(=C/C[C@@H](OC(C)=O)c1ccc(OCCO)cc1)c1cnc2ccccc2c1)C(C)C
composite z-score: 0.769
//
compound: C[N+](C)(C)CCCC[C@@H]1NC(=O)[C@@H]2C[C@H](C(=O)NCCCCCN)[C@H](c3cccc(OCCO)c3)N2C1=O
composite z-score: 1.6

----------
Assay: PSAC antagonists in infected red cells, primary screen, cell-based, P. falciparum Indochina, OD700, 1 h (AID 1154)
Conditions: P. falciparum Indochina infected RBC osmotic lysis, higher = more signal, called active from +8 up or from −8 down

entry-smiles: CC(=O)NCCCC[C@@H]1NC(=O)[C@@H]2C[C@H](C(=O)NCCCCN(C)C)[C@H](c3cccc(OCCO)c3)N2C1=O
z-score: 0.628

entry-smiles: COC(=O)C(CC#Cc1ccc2c(c1)[C@]1(C(=O)N2)[C@H](C(=O)O)[C@H]2C(=O)O[C@H](c3ccccc3)[C@H](c3ccccc3)N2[C@@H]1c1ccc(O)cc1)C(=O)OC
z-score: 1.83

entry-smiles: COc1ccc([Si](C)(C)[C@H]2[C@H](CCn3cc([C@H](O)c4ccccc4)nn3)O[C@@]3(C(=O)N(Cc4cccc(N5CCOC5=O)c4)c4ccccc43)[C@@H]2C)cc1
z-score: 26.1

entry-smiles: COc1cc2c(cc1O)C=[N+](Cc1cccc(OC(F)(F)F)c1)CC2
z-score: 3.05

entry-smiles: C=CCOC(=O)[C@H]1[C@@H]2C(=O)O[C@@H](c3ccccc3)[C@@H](c3ccccc3)N2[C@@H](c2ccc(OCCOC(=O)[C@H]3C[C@H]4C(=O)N5CCC[C@H]5C(=O)N4[C@H]3c3ccc(O)cc3)cc2)[C@]12C(=O)Nc1ccccc12
z-score: 1.72

entry-smiles: O=C(O)[C@@]1(CCS(=O)(=O)c2ccccc2)COC(c2ccc(OCCCO)cc2)=N1
z-score: 1.58

entry-smiles: O=C1C[C@]2(c3ccc([N+](=O)[O-])cc3)C(=O)N(CCN3CCOCC3)c3cc(CO)ccc3[C@H]2N1C1CCCCC1
z-score: 1.23

----------
Assay: small-molecule binders of probe aNOTCH2, primary screen, biochemical, small-molecule microarray, 635/667 nm fluorescence (AID 1121);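 note: score merges feature fluorescence read at 667 nm with its signal to noise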
Conditions: higher = more signal
So basically: composite z-score at 0.2 or higher? That is MET. Lower than 0.2? That is NOT MET.

molecule: COC(=O)[C@@]1(Cc2ccccc2)[C@H]2c3cc(C(=O)N4CCCC4)n(Cc4cccc5ccccc45)c3C[C@H]2CN1C(=O)c1ccccc1
cat: MET

molecule: CCCCN1CC=CC23O[C@@H]4C=CCOC(=O)[C@@H]4[C@H]2C(=O)N(CCCCCO)[C@@H]3C1=O (stereo partly specified)
cat: NOT MET

molecule: CC(C)(C)OC(=O)CC[C@@]1(C(N)=O)N=C(c2ccc(OCCCO)cc2)O[C@@H]1c1ccccc1
cat: NOT MET

molecule: COc1ccc([Si](C)(C)[C@H]2[C@H](CC(=O)N3Cc4ccccc4C[C@H]3CO)O[C@@]3(C(=O)N(Cc4ccc(N5CCC5=O)cc4)c4ccccc43)[C@@H]2C)cc1
cat: MET

molecule: COc1ccc(C(O)C2C=CC3C(=O)N(c4ccccc4)C(=O)C3N2Nc2ccc(C(C)C)cc2)cc1OCc1ccccc1 (stereo unspecified)
cat: NOT MET

molecule: COc1ccc(CCNC(=O)[C@@H]2c3ccccc3C(=O)N(C3Cc4ccccc4C3)[C@H]2c2ccc(CO)cc2)cc1
cat: NOT MET

molecule: CC(C)(C)C(=O)N[C@@H](c1ccc(Cl)cc1)[C@]1(C)C[C@H]1C1CCCCC1
cat: MET

molecule: CCOC(=O)[C@H]1C/C=C/C[C@H](C(=O)OCC)C(=O)O[C@H]2[C@@H](OC)O[C@H](CO)[C@@H](OC(=O)Nc3cccc(F)c3)[C@@H]2OC1=O
cat: NOT MET

molecule: COC(=O)[C@@]1(Cc2ccccc2)[C@H]2c3cc(C(=O)N4CCCC4)n(Cc4nc5ccccc5[nH]4)c3C[C@H]2CN1C(=O)c1ccccc1
cat: MET

molecule: C=CCOC(=O)[C@H]1[C@@H]2C(=O)O[C@@H](c3ccccc3)[C@@H](c3ccccc3)N2[C@@H](c2ccc(OCCOC(=O)[C@H]3C[C@H]4C(=O)N5CCC[C@H]5C(=O)N4[C@H]3c3ccc(O)cc3)cc2)[C@]12C(=O)Nc1ccccc12
cat: NOT MET

molecule: CC(C)C[C@@H]1NC(=O)[C@H]2C[C@@H](C(=O)NCCCCCCN)[C@@H](c3ccc(O)cc3)N2C1=O
cat: NOT MET

----------
Experiment: binders of probe aFGF2 on microarray, primary screen, stem cell growth factor project, biochemical, small-molecule microarray, fluorescence 635/667 (AID 1067);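 note: measures binding of biotinylated aFGF2 protein to printed compounds on slides; z-score merges feature fluorescence and signal-to-noise across triplicate slides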
Details: higher = more signal
parameter-measured: composite z-score

compound: CC(C)C[C@H]1NC(=O)[C@@]23C(=O)N[C@@H](Cc4ccccc4)C2[C@H](C)[C@@]2(C)O[C@H]2C3/C=C/C/C=C\CNC(=O)[C@H](Cc2ccccc2)NC1=O (stereo partly drawn)
value-reported: -0.0973
--
compound: CC(C)C[C@@H]1NC(=O)[C@H]2C[C@@H](C(=O)NCCCCCCN(C)C)[C@@H](c3ccc(O)cc3)N2C1=O
value-reported: -0.0366
--
compound: COC(=O)[C@@]1(Cc2ccc(OC)cc2)[C@H]2c3cc(C(=O)N4CCCC4)n(Cc4ccsc4Br)c3C[C@H]2CN1C(=O)c1ccccc1
value-reported: -0.1
